pIC50: −log10 of the molar value.
Literature compilation of pIC50 measurements on human PDE10A2 (Homo sapiens (Human), UniProt Q9Y233).
ATTRIBUTE MEASURED: pIC50

Cn1c(=O)n([C@H]2C[C@H](Nc3ncc4ccccc4n3)C2)c2ncc(F)cc21 | 8.12
Cn1cc(NC(=O)c2nc(C3CC3)ccc2Nc2cncnc2)c(C(=O)N2CCC(F)(F)C2)n1 | 8.49

A: Cc1nc2cccnc2n2c(-c3cc(C4(O)CCC4)ccc3Cl)nnc12
B: CNC(=O)c1c(NC(=O)c2nc(C(C)(C)O)ncc2Nc2cncnc2)cnn1C
C: Cc1ccc(C)n2nc(CCc3c[nH]c(-c4ccco4)n3)nc12
Please give the order of these compounds when sorted by pIC50, largest value leading. Provide your answer as the labels ordered per the instruction.
C, B, A

* * *

Literature compilation of pIC50 measurements on human PDE10A2 (Homo sapiens (Human)).
pIC50: −log10 of the molar value.

O=C1c2c(cccc2N2CCOCC2)CN1CCc1cccc(-c2ncccn2)c1 | 6.30 to 6.70
Cn1ncc(-c2nc(C(F)F)cs2)c1C(=O)Nc1ccn2nc(-c3cccc(F)c3)nc2c1 | > 8.30
O=C1c2c(-c3cn[nH]c3)ccnc2CN1CCc1ccc2ccccc2n1 | > 7.00
Cn1c(CCN2Cc3cccc(-c4ccncc4)c3C2=O)nc2ccccc21 | > 7.00
CC(C)(O)CNC(=O)c1c(F)cc(F)cc1NC(=O)c1nc(C2CC2)cnc1Nc1cncnc1 | 8.96

Consider the molecule Cc1nc2ccc(C3CC3)nc2n2c(-c3cc(OC4COCC4O)ccc3Cl)nnc12 (racemic) and give its measured pIC50.
7.21

Consider the molecule Cc1cnc2c(C(=O)NC3(c4ccc(C(F)(F)F)nc4)CCOCC3O)cnn2c1 (racemic) and give its measured pIC50.
< 5.00

Consider the molecule CC1(C)CCN(C(=O)c2ccncc2NC(=O)c2nc(C3CC3)ccc2Nc2cncnc2)C1 and give its measured pIC50.
7.06

Consider the molecule CN(CCF)C(=O)c1c(NC(=O)c2nc(C3CC3)cnc2Nc2cncnc2)cnn1C and give its measured pIC50.
7.44

* * *

Literature compilation of pIC50 measurements on human PDE10A2 (Homo sapiens (Human), UniProt Q9Y233).
pIC50: −log10 of the molar value.
ATTRIBUTE MEASURED: pIC50

Cc1nc2ccc(CCc3nc(-c4ccncc4)cn3C)nn2c1C | 7.49

I: Cc1ncc(C)n2nc(CCc3cc(F)c4ccccc4n3)nc12
II: O=C(Nc1ccc(-c2ccccn2)s1)c1nc(C2CC2)ccc1Nc1cncnc1
Of the two listed items, which has the higher pIC50? First: I Second: II Please indicate the selected item by its label.
II

a: Cc1ccc(-c2cn(C)c(CCc3nc4c(F)cccn4n3)n2)o1
b: CC1(C)CCCN(c2nnc3c(N)ncc(Cl)n23)C1
c: O=C(Nc1cn(-c2ccccn2)cn1)c1nc(C2CC2)ccc1Nc1cncnc1
Order by pIC50, ascending. Provide your answer as the labels ordered per the instruction.
b, a, c
(b: 5.25, a: 7.03, c: 7.48)

P: CNC(=O)c1c(NC(=O)c2nc([C@@H]3CCOC3)cnc2Nc2cncnc2)cnn1C
Q: Cc1cc(Br)c(C)c(C(=O)Nc2ccn3cc(-c4ccccc4)nc3n2)n1
Of the two listed items, which has the higher pIC50? First: P Second: Q Please indicate the selected item by its label.
P
(P: 8.15, Q: 6.49)
